Biological target: T1, TNFR1 (Homo sapiens, UniProt P19438)
T1 chain: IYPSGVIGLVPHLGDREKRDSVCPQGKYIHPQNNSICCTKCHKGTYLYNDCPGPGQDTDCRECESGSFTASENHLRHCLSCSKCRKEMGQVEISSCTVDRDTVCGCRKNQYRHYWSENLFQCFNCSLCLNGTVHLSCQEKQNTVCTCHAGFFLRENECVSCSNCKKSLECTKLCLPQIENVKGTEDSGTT
Experiment: yeast display SC50
apparent Kd (screen) overview
observed-property: apparent Kd (screen) (nM)

[
  {
    "binder": "K31E (designed binder) SMEEEVEKAAKEYEKKKKEAIEKHLEKLKAEDKEAAERFLKELEEAAKEYAKDEAKTMSEEEAKRRAKKYKEKVLLSELSEEEQKEIKEAEEKLVRTILKYVEEAAK",
    "observed-property": "apparent Kd (screen)",
    "unit-symbol": "nM",
    "result-value": 1.05
  },
  {
    "binder": "T97G (designed binder) SMEEEVEKAAKEYEKKKKEAIEKHLEKLKAKDKEAAERFLKELEEAAKEYAKDEAKTMSEEEAKRRAKKYKEKVLLSELSEEEQKEIKEAEEKLVRGILKYVEEAAK",
    "observed-property": "apparent Kd (screen)",
    "unit-symbol": "nM",
    "result-value": 1.86
  },
  {
    "binder": "A36M (designed binder) SMEEEVEKAAKEYEKKKKEAIEKHLEKLKAKDKEAMERFLKELEEAAKEYAKDEAKTMSEEEAKRRAKKYKEKVLLSELSEEEQKEIKEAEEKLVRTILKYVEEAAK",
    "observed-property": "apparent Kd (screen)",
    "unit-symbol": "nM",
    "result-value": 0.446
  },
  {
    "binder": "K41V (designed binder) SMEEEVEKAAKEYEKKKKEAIEKHLEKLKAKDKEAAERFLVELEEAAKEYAKDEAKTMSEEEAKRRAKKYKEKVLLSELSEEEQKEIKEAEEKLVRTILKYVEEAAK",
    "observed-property": "apparent Kd (screen)",
    "unit-symbol": "nM",
    "result-value": 0.446
  },
  {
    "binder": "A106W (designed binder) SMEEEVEKAAKEYEKKKKEAIEKHLEKLKAKDKEAAERFLKELEEAAKEYAKDEAKTMSEEEAKRRAKKYKEKVLLSELSEEEQKEIKEAEEKLVRTILKYVEEAWK",
    "observed-property": "apparent Kd (screen)",
    "unit-symbol": "nM",
    "result-value": 0.368
  },
  {
    "binder": "K48T (designed binder) SMEEEVEKAAKEYEKKKKEAIEKHLEKLKAKDKEAAERFLKELEEAATEYAKDEAKTMSEEEAKRRAKKYKEKVLLSELSEEEQKEIKEAEEKLVRTILKYVEEAAK",
    "observed-property": "apparent Kd (screen)",
    "unit-symbol": "nM",
    "result-value": 0.49
  },
  {
    "binder": "E104V (designed binder) SMEEEVEKAAKEYEKKKKEAIEKHLEKLKAKDKEAAERFLKELEEAAKEYAKDEAKTMSEEEAKRRAKKYKEKVLLSELSEEEQKEIKEAEEKLVRTILKYVEVAAK",
    "observed-property": "apparent Kd (screen)",
    "unit-symbol": "nM",
    "result-value": 0.446
  },
  {
    "binder": "K23E (designed binder) SMEEEVEKAAKEYEKKKKEAIEEHLEKLKAKDKEAAERFLKELEEAAKEYAKDEAKTMSEEEAKRRAKKYKEKVLLSELSEEEQKEIKEAEEKLVRTILKYVEEAAK",
    "observed-property": "apparent Kd (screen)",
    "unit-symbol": "nM",
    "result-value": 0.446
  },
  {
    "binder": "E60V (designed binder) SMEEEVEKAAKEYEKKKKEAIEKHLEKLKAKDKEAAERFLKELEEAAKEYAKDEAKTMSVEEAKRRAKKYKEKVLLSELSEEEQKEIKEAEEKLVRTILKYVEEAAK",
    "observed-property": "apparent Kd (screen)",
    "unit-symbol": "nM",
    "result-value": 0.446
  },
  {
    "binder": "A106S (designed binder) SMEEEVEKAAKEYEKKKKEAIEKHLEKLKAKDKEAAERFLKELEEAAKEYAKDEAKTMSEEEAKRRAKKYKEKVLLSELSEEEQKEIKEAEEKLVRTILKYVEEASK",
    "observed-property": "apparent Kd (screen)",
    "unit-symbol": "nM",
    "result-value": 0.79
  },
  {
    "binder": "E78C (designed binder) SMEEEVEKAAKEYEKKKKEAIEKHLEKLKAKDKEAAERFLKELEEAAKEYAKDEAKTMSEEEAKRRAKKYKEKVLLSCLSEEEQKEIKEAEEKLVRTILKYVEEAAK",
    "observed-property": "apparent Kd (screen)",
    "unit-symbol": "nM",
    "result-value": 0.49
  },
  {
    "binder": "D53F (designed binder) SMEEEVEKAAKEYEKKKKEAIEKHLEKLKAKDKEAAERFLKELEEAAKEYAKFEAKTMSEEEAKRRAKKYKEKVLLSELSEEEQKEIKEAEEKLVRTILKYVEEAAK",
    "observed-property": "apparent Kd (screen)",
    "unit-symbol": "nM",
    "result-value": 2.48
  },
  {
    "binder": "K23H (designed binder) SMEEEVEKAAKEYEKKKKEAIEHHLEKLKAKDKEAAERFLKELEEAAKEYAKDEAKTMSEEEAKRRAKKYKEKVLLSELSEEEQKEIKEAEEKLVRTILKYVEEAAK",
    "observed-property": "apparent Kd (screen)",
    "unit-symbol": "nM",
    "result-value": 0.49
  },
  {
    "binder": "A47G (designed binder) SMEEEVEKAAKEYEKKKKEAIEKHLEKLKAKDKEAAERFLKELEEAGKEYAKDEAKTMSEEEAKRRAKKYKEKVLLSELSEEEQKEIKEAEEKLVRTILKYVEEAAK",
    "observed-property": "apparent Kd (screen)",
    "unit-symbol": "nM",
    "result-value": 0.593
  },
  {
    "binder": "L76N (designed binder) SMEEEVEKAAKEYEKKKKEAIEKHLEKLKAKDKEAAERFLKELEEAAKEYAKDEAKTMSEEEAKRRAKKYKEKVLNSELSEEEQKEIKEAEEKLVRTILKYVEEAAK",
    "observed-property": "apparent Kd (screen)",
    "unit-symbol": "nM",
    "result-value": 2.73
  },
  {
    "binder": "E54C (designed binder) SMEEEVEKAAKEYEKKKKEAIEKHLEKLKAKDKEAAERFLKELEEAAKEYAKDCAKTMSEEEAKRRAKKYKEKVLLSELSEEEQKEIKEAEEKLVRTILKYVEEAAK",
    "observed-property": "apparent Kd (screen)",
    "unit-symbol": "nM",
    "result-value": 11.4
  }
]
